test: xn = mol fraction of the nth substance listed, in the solute-free solvent; conditions: 328.15 K; x2 = 0.3
Recorded endpoint: solubility (g/100 g solution)
Give bare numbers.

Record excerpt, results attached:
{"columns": ["Molecule", "solubility (g/100 g solution)"],
 "data": [
  ["O=C(O)c1ccc(C(=O)O)o1 + C1CCOC1 + O", 7.45],
  ["CC(=O)OC(c1ccccc1)C(Cl)(Cl)Cl (stereo not given) + CC(C)O + O", 4.91],
  ["O=C(O)c1ccc(C(=O)O)o1 + O + COCCOCCOC", 3.53]
]}

Return reported solubility (g/100 g solution) values for all items listed beneath this line.
1. O=C(O)c1ccc(C(=O)O)o1 + O + COCCOC
2. O=C(O)c1ccc(C(=O)O)o1 + C1COCCO1 + O

1: 4.58; 2: 5.62

---

Task for the reader: assign each of the following compounds its reported solubility (g/100 g solution).
assay: xn = mol fraction of the nth substance listed, in the solute-free solvent; details: 288.15 K; x2 = 0.2
Give bare numbers.

Return reported solubility (g/100 g solution) values for all items listed beneath this line.
1. O=C1CCc2ccc(OCCCCN3CCN(c4cccc(Cl)c4Cl)CC3)cc2N1 + CCC(C)=O + CCCO
2. COC1=CC(=O)CC(C)C12Oc1c(Cl)c(OC)cc(OC)c1C2=O (stereo not given) + CC(=O)CC(C)C + CC(C)O
3. CCCCOc1ccc(C(=O)CCN2CCCCC2)cc1.Cl + CCO + CCCCCC
4. CCCCOc1ccc(C(=O)CCN2CCCCC2)cc1.Cl + CO + C1CCOC1
5. COC1=CC(=O)CC(C)C12Oc1c(Cl)c(OC)cc(OC)c1C2=O (stereo not given) + CCC(C)=O + CC(C)O

1: 1.44; 2: 0.304; 3: 6.4; 4: 9.92; 5: 0.374

Return reported solubility (g/100 g solution) values for all items listed beneath this line.
1. O=C1CCc2ccc(OCCCCN3CCN(c4cccc(Cl)c4Cl)CC3)cc2N1 + CCC(C)=O + CC(C)=O
2. CCCCOc1ccc(C(=O)CCN2CCCCC2)cc1.Cl + CCO + O

[1.25, 40.3]

Return reported solubility (g/100 g solution) values for all items listed beneath this line.
1. COC1=CC(=O)CC(C)C12Oc1c(Cl)c(OC)cc(OC)c1C2=O (stereo not given) + CC(C)=O + CC(C)O
2. O=C1CCc2ccc(OCCCCN3CCN(c4cccc(Cl)c4Cl)CC3)cc2N1 + CCC(C)=O + CCOC(C)=O
3. CCCCOc1ccc(C(=O)CCN2CCCCC2)cc1.Cl + CCO + CCOC(C)=O

[0.422, 0.953, 8.92]

---

test: xn = mol fraction of the nth substance listed, in the solute-free solvent; details: 323.15 K; x2 = 0.4
Recorded endpoint: solubility (g/100 g solution)
Give bare numbers.

Record excerpt, results attached:
{"columns": ["Compound", "solubility (g/100 g solution)"],
 "data": [
  ["COC1=CC(=O)CC(C)C12Oc1c(Cl)c(OC)cc(OC)c1C2=O (centres undefined) + CC(=O)CC(C)C + CC(C)O", 1.46],
  ["CC(=O)OC(c1ccccc1)C(Cl)(Cl)Cl (centres undefined) + CC(=O)O + O", 2.64],
  ["CC(=O)OC(c1ccccc1)C(Cl)(Cl)Cl (centres undefined) + CCO + O", 4.63]
]}

Summary for this compound, CC(=O)OC(c1ccccc1)C(Cl)(Cl)Cl (centres undefined) + CC(C)O + O : solubility (g/100 g solution) is 7.89

---

assay: xn = mol fraction of the nth substance listed, in the solute-free solvent; settings: 293.15 K; x2 = 0.6
Use 2 as the dividing line for solubility (g/100 g solution), with the line itself on the true (1) side and lower values as false (0).

Form field: solubility (g/100 g solution) at least 2? Entry: O=C1CCc2ccc(OCCCCN3CCN(c4cccc(Cl)c4Cl)CC3)cc2N1 + CCC(C)=O + CCOC(C)=O
false (0)

Form field: solubility (g/100 g solution) at least 2? Entry: COC1=CC(=O)CC(C)C12Oc1c(Cl)c(OC)cc(OC)c1C2=O (centres undefined) + CCC(C)=O + CC(C)O
false (0)

Form field: solubility (g/100 g solution) at least 2? Entry: CCCCOc1ccc(C(=O)CCN2CCCCC2)cc1.Cl + CO + C1CCOC1
true (1)

Form field: solubility (g/100 g solution) at least 2? Entry: CC(=O)OC(c1ccccc1)C(Cl)(Cl)Cl (centres undefined) + CCO + O
false (0)

Form field: solubility (g/100 g solution) at least 2? Entry: COC1=CC(=O)CC(C)C12Oc1c(Cl)c(OC)cc(OC)c1C2=O (centres undefined) + CC(C)=O + CC(C)O
false (0)

---

test: xn = mol fraction of the nth substance listed, in the solute-free solvent; conditions: 278.15 K; x2 = 0.3
Task for the reader: assign each of the following compounds its reported solubility (g/100 g solution).
Numbers only.

Record excerpt, results attached:
{"columns": ["Compound", "Test result"],
 "data": [
  ["O=C1CCc2ccc(OCCCCN3CCN(c4cccc(Cl)c4Cl)CC3)cc2N1 + CCC(C)=O + CCOC(C)=O", 0.681],
  ["O=C1CCc2ccc(OCCCCN3CCN(c4cccc(Cl)c4Cl)CC3)cc2N1 + CCC(C)=O + CCCO", 1.32]
]}

Field: next compound
Summary for this compound, O=C1CCc2ccc(OCCCCN3CCN(c4cccc(Cl)c4Cl)CC3)cc2N1 + CCC(C)=O + CC(C)=O : solubility (g/100 g solution) is 0.948

---

Task for the reader: assign each of the following compounds its reported solubility (g/100 g solution).
test: xn = mol fraction of the nth substance listed, in the solute-free solvent; conditions: 303.15 K; x2 = 0.5
Answers are plain numbers.

{"columns": ["Compound", "solubility (g/100 g solution)"],
 "data": [
  ["O=C(O)c1ccc(C(=O)O)o1 + C1COCCO1 + O", 4.37],
  ["O=C1CCc2ccc(OCCCCN3CCN(c4cccc(Cl)c4Cl)CC3)cc2N1 + CCC(C)=O + CCOC(C)=O", 2.22]
]}

Field: next compound
Summary for this compound, COC1=CC(=O)CC(C)C12Oc1c(Cl)c(OC)cc(OC)c1C2=O (stereo not drawn) + CC(=O)CC(C)C + CC(C)O : solubility (g/100 g solution) is 0.939

---

experiment: xn = mol fraction of the nth substance listed, in the solute-free solvent; conditions: 313.15 K; x2 = 0.4
Classification field. Basis: solubility (g/100 g solution). Definitions: low: < 2; medium: ≥ 2 and < 5; high: ≥ 5

{"columns": ["Compound", "Class"],
 "data": [
  ["CCCCOc1ccc(C(=O)CCN2CCCCC2)cc1.Cl + CCO + O", "high"]
]}

Could you tell me which band CCCCOc1ccc(C(=O)CCN2CCCCC2)cc1.Cl + CO + C1CCOC1 belongs to?
high

Could you tell me which band COC1=CC(=O)CC(C)C12Oc1c(Cl)c(OC)cc(OC)c1C2=O (stereo not given) + CC(=O)CC(C)C + CC(C)O belongs to?
low

Could you tell me which band O=C1CCc2ccc(OCCCCN3CCN(c4cccc(Cl)c4Cl)CC3)cc2N1 + CCC(C)=O + CCOC(C)=O belongs to?
medium

Could you tell me which band COC1=CC(=O)CC(C)C12Oc1c(Cl)c(OC)cc(OC)c1C2=O (stereo not given) + CCC(C)=O + CC(C)O belongs to?
low

Could you tell me which band CC(=O)OC(c1ccccc1)C(Cl)(Cl)Cl (stereo not given) + CC(=O)O + O belongs to?
low

Could you tell me which band CCCCOc1ccc(C(=O)CCN2CCCCC2)cc1.Cl + CCO + CCOC(C)=O belongs to?
high

Could you tell me which band O=C1CCc2ccc(OCCCCN3CCN(c4cccc(Cl)c4Cl)CC3)cc2N1 + CCC(C)=O + CC(C)=O belongs to?
medium

Could you tell me which band COC1=CC(=O)CC(C)C12Oc1c(Cl)c(OC)cc(OC)c1C2=O (stereo not given) + CC(C)=O + CC(C)O belongs to?
low

Could you tell me which band CC(=O)OC(c1ccccc1)C(Cl)(Cl)Cl (stereo not given) + CC(C)O + O belongs to?
medium

---

experiment: xn = mol fraction of the nth substance listed, in the solute-free solvent; conditions: 323.15 K; x2 = 0.3
Task for the reader: assign each of the following compounds its reported solubility (g/100 g solution).
Give bare numbers.

Record excerpt, results attached:
{"columns": ["Compound", "solubility (g/100 g solution)"],
 "data": [
  ["CCCCOc1ccc(C(=O)CCN2CCCCC2)cc1.Cl + CCO + CCCCCC", 20.3],
  ["O=C(O)c1ccc(C(=O)O)o1 + C1CCOC1 + O", 7.1],
  ["O=C(O)c1ccc(C(=O)O)o1 + O + COCCOCCOC", 3.37]
]}

Field: next compound
Summary for this compound, COC1=CC(=O)CC(C)C12Oc1c(Cl)c(OC)cc(OC)c1C2=O (centres undefined) + CCC(C)=O + CC(C)O : solubility (g/100 g solution) is 1.79
